Molecular target: T1, human high affinity trimeric IL-2 receptor (CD25/CD122/CD132) (human, UniProt P01589 22-272; P14784 27-551; P31785 23-369)
T1 sequence 1: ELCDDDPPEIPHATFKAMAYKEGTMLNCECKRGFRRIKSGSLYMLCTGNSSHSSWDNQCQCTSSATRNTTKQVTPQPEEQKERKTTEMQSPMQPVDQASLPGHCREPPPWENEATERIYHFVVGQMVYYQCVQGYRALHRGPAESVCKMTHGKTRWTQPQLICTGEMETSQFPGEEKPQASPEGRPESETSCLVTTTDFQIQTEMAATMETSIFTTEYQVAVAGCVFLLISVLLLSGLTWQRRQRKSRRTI
T1 sequence 2: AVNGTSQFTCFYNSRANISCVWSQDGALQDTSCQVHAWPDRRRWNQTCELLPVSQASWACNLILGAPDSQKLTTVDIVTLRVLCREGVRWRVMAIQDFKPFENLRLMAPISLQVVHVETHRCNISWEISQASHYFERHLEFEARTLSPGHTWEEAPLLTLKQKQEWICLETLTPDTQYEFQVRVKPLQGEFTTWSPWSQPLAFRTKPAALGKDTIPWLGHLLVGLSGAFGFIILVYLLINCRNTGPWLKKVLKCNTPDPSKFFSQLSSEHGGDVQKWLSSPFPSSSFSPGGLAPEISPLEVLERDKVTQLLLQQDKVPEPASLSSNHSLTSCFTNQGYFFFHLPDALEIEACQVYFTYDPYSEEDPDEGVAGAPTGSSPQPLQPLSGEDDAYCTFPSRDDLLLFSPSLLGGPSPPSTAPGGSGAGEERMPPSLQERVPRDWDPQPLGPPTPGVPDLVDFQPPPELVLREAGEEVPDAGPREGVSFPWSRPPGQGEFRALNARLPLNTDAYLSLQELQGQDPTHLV
T1 sequence 3: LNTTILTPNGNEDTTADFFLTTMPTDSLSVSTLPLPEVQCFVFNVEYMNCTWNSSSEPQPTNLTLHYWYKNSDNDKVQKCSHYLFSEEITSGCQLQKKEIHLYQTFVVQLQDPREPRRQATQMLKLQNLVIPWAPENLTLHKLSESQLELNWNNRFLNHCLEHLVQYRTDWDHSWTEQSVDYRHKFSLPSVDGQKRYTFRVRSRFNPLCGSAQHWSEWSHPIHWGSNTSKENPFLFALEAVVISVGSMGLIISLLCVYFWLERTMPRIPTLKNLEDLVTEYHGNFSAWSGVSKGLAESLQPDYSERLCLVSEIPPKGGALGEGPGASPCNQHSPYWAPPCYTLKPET
Assay: cell-based or functional assay
# pSTAT5 ratio YT CD25/YT, dilution factor 2, lower table values compiled below
observationType: pSTAT5 ratio YT CD25/YT, dilution factor 2, lower table

{"binder": "RHH (ligand) cytokine: APTSSSTKKTQLQLEHLRLDLHMILNGINNYKNPKLTRMLTFKFYMPKKATELKHLQCLEEELKPLEEVLNLAQSKNFHLRPRDLISNINVIVLELKGSETTFMCEYADETATIVEFLNRWITFCHSIISTLT", "measuredValue": 2}
{"binder": "RRH (ligand) cytokine: APTSSSTKKTQLQLEHLRLDLRMILNGINNYKNPKLTRMLTFKFYMPKKATELKHLQCLEEELKPLEEVLNLAQSKNFHLRPRDLISNINVIVLELKGSETTFMCEYADETATIVEFLNRWITFCHSIISTLT", "measuredValue": 2.3}
{"binder": "NEH (ligand) cytokine: APTSSSTKKTQLQLEHLNLDLEMILNGINNYKNPKLTRMLTFKFYMPKKATELKHLQCLEEELKPLEEVLNLAQSKNFHLRPRDLISNINVIVLELKGSETTFMCEYADETATIVEFLNRWITFCHSIISTLT", "measuredValue": 0.9}
{"binder": "HEH (ligand) cytokine: APTSSSTKKTQLQLEHLHLDLEMILNGINNYKNPKLTRMLTFKFYMPKKATELKHLQCLEEELKPLEEVLNLAQSKNFHLRPRDLISNINVIVLELKGSETTFMCEYADETATIVEFLNRWITFCHSIISTLT", "measuredValue": 1}
